Tested on: 22AG (DNA, G4) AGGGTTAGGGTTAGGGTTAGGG
ASSAY_COMMENT: photometric titration (Specfit)
ASSAY_CONDITIONS: K+ (25 mM K2HPO4, 70 mM KCl); K-phosphate pH 7.0, DMSO cosolvent (10% in legend, 5% in methods); overall 2:1 constant
REPORTED_ENDPOINT: log Kb

>>> recorded_value("COc1ccc2cc3[n+](cc2c1OCCCCCn1cc(Cn2cnc4c(N)ncnc42)nn1)CCc1cc2c(cc1-3)OCO2")
"10.8 ± 0.1 log (K in M^-2)"

**Q:** Return log Kb measured with 22AG (DNA, G4) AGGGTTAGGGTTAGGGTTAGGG given this compound: `COc1ccc2cc3[n+](cc2c1OCCCCn1cc(Cn2cnc4c(N)ncnc42)nn1)CCc1cc2c(cc1-3)OCO2`
**A:** 10.7 ± 0.1 log (K in M^-2)

**Q:** Return log Kb measured with 22AG (DNA, G4) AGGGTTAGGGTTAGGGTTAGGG given this compound: `COc1ccc2cc3[n+](cc2c1OCCCCCCn1cc(Cn2cnc4c(N)ncnc42)nn1)CCc1cc2c(cc1-3)OCO2`
**A:** 10.7 ± 0.1 log (K in M^-2)

**Q:** Return log Kb measured with 22AG (DNA, G4) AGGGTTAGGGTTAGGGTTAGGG given this compound: `COc1ccc2cc3[n+](cc2c1OCCCn1cc(Cn2cnc4c(N)ncnc42)nn1)CCc1cc2c(cc1-3)OCO2`
**A:** 10.8 ± 0.2 log (K in M^-2)

---

Test system: Fa2T (DNA, G4) ACAGGGGTGTGGGGACAGGGGTGTGGGG
ASSAY_COMMENT: FRET melting
ASSAY_CONDITIONS: K+ 10 mM (KCl), Na+ 10 mM (cacodylate), Li+ 90 µM [sic]; Na-cacodylate pH 7.2; DNA 0.2 µM, LDR 5 (1 µM ligand); error ± 0.5 °C
REPORTED_ENDPOINT: ΔTm (°C)

[A] COc1ccc2cc3[n+](cc2c1OCCCCCn1cc(Cn2cnc4c(N)ncnc42)nn1)CCc1cc2c(cc1-3)OCO2
[B] COc1ccc2cc3[n+](cc2c1OCCCCn1cc(Cn2cnc4c(N)ncnc42)nn1)CCc1cc2c(cc1-3)OCO2
[C] COc1ccc2cc3[n+](cc2c1OCCCCCCn1cc(Cn2cnc4c(N)ncnc42)nn1)CCc1cc2c(cc1-3)OCO2
[D] COc1ccc2cc3[n+](cc2c1OCCn1cc(Cn2cnc4c(N)ncnc42)nn1)CCc1cc2c(cc1-3)OCO2
**Q:** Order the items by recorded ΔTm; the first position goes to the largest value. Write the labels out in the order the request specifies.
**A:** C, A, B, D
(C: 1.1 °C, A: 0.0 °C, B: −0.1 °C, D: −0.5 °C)
